- System: Saccharomyces cerevisiae
- ASSAY PROTOCOL: protein stability index of tFT-peptide fusion (C-terminal peptide) (PSI (0-1 scale)); higher = more stable (slower turnover)
- STUDY CONDITIONS: genetic background: wild type; temperature: 30 C
ATTRIBUTE MEASURED: protein stability index
Would you mind answering with just the numeric figure?

IRLLTYLLRKIE [YLR230W C-terminal 12 aa] ... 0.351

Enquiry: Notebook: pull reported protein stability index for Saccharomyces cerevisiae, entry HTMENIFAGKLD [CUE4 C-terminal 12 aa]
Return: 0.69

Enquiry: Do the same for KRDKLKKNCVIM [YGL082W C-terminal 12 aa] please
Return: 0.698

Enquiry: Do the same for AKKTNKLALTHV [SEC26 C-terminal 12 aa] please
Return: 0.718

Enquiry: Do the same for TEKDSTTTNYRK [YJL218W C-terminal 12 aa] please
Return: 0.698

Enquiry: Do the same for QQGGAGADQKTE [EMC10 C-terminal 12 aa] please
Return: 0.656

Enquiry: Do the same for DKLGFLDRRRNE [COI1 C-terminal 12 aa] please
Return: 0.668

Enquiry: Do the same for IYIQTPINDFKS [SLM1 C-terminal 12 aa] please
Return: 0.678

Enquiry: Do the same for FMKELEMSEESD [RAD4 C-terminal 12 aa] please
Return: 0.738

Enquiry: Do the same for YILFFLFQLSIM [PEX35 C-terminal 12 aa] please
Return: 0.369

Enquiry: Do the same for ISNLPECLGNLC [ANR2 C-terminal 12 aa] please
Return: 0.693

Enquiry: Do the same for EYEPFVMYIINL [VMA5 C-terminal 12 aa] please
Return: 0.545

###

We begin with a simple list: items and their reported protein stability index.
- Tested on: Saccharomyces cerevisiae
- ASSAY PROTOCOL: protein stability index of tFT-peptide fusion (C-terminal peptide) (PSI (0-1 scale)); higher = more stable (slower turnover)
- STUDY CONDITIONS: genetic background: cdc34-1; temperature: 37 C
Would you mind answering with just the numeric figure?

Enquiry: For the sequence PPGSPPGSLRPT , what protein stability index is on record?
Return: 0.67

Enquiry: Do the same for ALLWEFVPCSVR please
Return: 0.521

Enquiry: Do the same for KKKKQKKNNNKR please
Return: 0.699

Enquiry: Do the same for VCCYILFFLFPV please
Return: 0.401

Enquiry: Do the same for WGRENLTRVKLE please
Return: 0.705

###

- Tested on: Saccharomyces cerevisiae
- ASSAY PROTOCOL: protein stability index of tFT-peptide fusion (C-terminal peptide) (PSI (0-1 scale)); higher = more stable (slower turnover)
- STUDY CONDITIONS: genetic background: wild type; temperature: 30 C
Categorize each record by its protein stability index using category 1 = under 0.6, category 2 = from 0.6 up to 0.7, category 3 = 0.7 and over

HHACLLPVRKAG ... category 1
AVRYFKLCRSCL ... category 2
CSDGAFELRRDG ... category 1
TTYFLASSEWAG ... category 3
KIKEIIKIKKKR ... category 2

Enquiry: Form: Item = FVCLRWAVGLGG ; Class = ?
Return: category 2

Enquiry: Do the same for VFLTLDVFPSSP please
Return: category 2

Enquiry: Do the same for VFSAVIFFDCVQ please
Return: category 2

# credit: the supplement of paper PMC10724198
